A set of compounds tested on C-C chemokine receptor type 2 (Homo sapiens, UniProt P41597), with measured IC50:
property: IC50

COC1COCCC1N[C@@H]1C[C@H]2C[C@H](Cl)C[C@@]2(C(=O)N2CCc3ncc(C(F)(F)F)cc3C2)C1 (mixture of isomers) : 20 nM
COC1COCCC1N[C@@H]1C[C@H]2C[C@H](O)C[C@@]2(C(=O)N2CCc3ncc(C(F)(F)F)cc3C2)C1 (mixture of isomers) : 59 nM
COC1COCCC1N[C@@H]1C[C@H]2C[C@@H](Cl)C[C@@]2(C(=O)N2CCc3ncc(C(F)(F)F)cc3C2)C1 (mixture of isomers) : 45 nM
COC1COCCC1N[C@@H]1C[C@H]2CCC[C@@]2(C(=O)N2CCc3ncc([N+](=O)[O-])cc3C2)C1 (mixture of isomers) : 1500 nM
COC1COCCC1N[C@@H]1C[C@H]2CCC[C@@]2(C(=O)N2CCc3ccc(F)cc3C2)C1 (mixture of isomers) : 4400 nM
COC1COCCC1N[C@@H]1C[C@H]2C[C@@H](C(N)=O)C[C@@]2(C(=O)N2CCc3ncc(C(F)(F)F)cc3C2)C1 (mixture of isomers) : 130 nM
COC1COCCC1N[C@@H]1C[C@H]2C[C@H](OC)C[C@@]2(C(=O)N2CCc3ncc(C(F)(F)F)cc3C2)C1 (mixture of isomers) : 210 nM
COC1COCCC1N[C@@H]1C[C@H]2CCC[C@@]2(C(=O)N2CCc3ncc(OC(C)C)cc3C2)C1 (mixture of isomers) : 5600 nM
COC1COCCC1N[C@@H]1C[C@H]2CCC[C@@]2(C(=O)N2CCc3ccc(Br)cc3C2)C1 (mixture of isomers) : 290 nM
COC1COCCC1N[C@@H]1C[C@H]2C[C@@H](O)C[C@@]2(C(=O)N2CCc3ncc(C(F)(F)F)cc3C2)C1 (mixture of isomers) : 58 nM
O=C(N1CCc2ncc(C(F)(F)F)cc2C1)[C@@]12CCC[C@@H]1C[C@@H](NCC1CCOCC1)C2 : > 25000 nM
COc1cnc2c(c1)CN(C(=O)[C@@]13CCC[C@@H]1C[C@@H](NC1CCOCC1OC)C3)CC2 (mixture of isomers) : > 25000 nM
COC1COCCC1N[C@@H]1C[C@H]2C[C@H](C(N)=O)C[C@@]2(C(=O)N2CCc3ncc(C(F)(F)F)cc3C2)C1 (mixture of isomers) : 88 nM
COC1COCCC1N[C@@H]1C[C@H]2CCC[C@@]2(C(=O)N2CCc3ncc(Cl)cc3C2)C1 (mixture of isomers) : 1100 nM
COC1COCCC1N[C@@H]1C[C@H]2C[C@@H](N(C)C)C[C@@]2(C(=O)N2CCc3ncc(C(F)(F)F)cc3C2)C1 (some centres undefined) : 247 nM
O=C(N1CCc2ncc(C(F)(F)F)cc2C1)[C@@]12CCC[C@@H]1C[C@@H](NC1CCSCC1)C2 : 874 nM
O=C(N1CCc2ncc(C(F)(F)F)cc2C1)[C@@]12CCC[C@@H]1C[C@@H](NC1CCCCCC1)C2 : 699 nM
COC1COCCC1N[C@@H]1C[C@H]2C[C@H](N(C)C)C[C@@]2(C(=O)N2CCc3ncc(C(F)(F)F)cc3C2)C1 (mixture of isomers) : 8090 nM
O=C(N1CCc2ncc(C(F)(F)F)cc2C1)[C@@]12CCC[C@@H]1C[C@@H](NC1CCCCC1)C2 : 1530 nM
